experiment: in vitro; details: % Viability non-Wnt responsive cells; note: test concentration or dose not given here
Where a SMILES comes first, the peptide text is derived from it.
Please respond with reported viability for every item in the list.
Give bare numbers, in %.

{"compound": "CC[C@H](C)[C@H](NC(=O)[C@H](CC(C)C)NC(=O)[C@H](Cc1ccccc1)NC(=O)[C@H](Cc1c[nH]c2ccccc12)NC(=O)[C@@H](N)CCSC)C(=O)N[C@@H](CS)C(=O)N[C@@H](Cc1ccccn1)C(=O)N[C@@H](Cc1c[nH]c2ccccc12)C(=O)NCC(=O)O [compound 148] (HELM PEPTIDE1{M.W.F.L.I.C.[O=C([C@H](Cc1ccccn1)N[*:1])[*:2]].W.G}$$$$V2.0)", "readout unit": "%", "viability": 95.5}

Attention now shifts to the item below.
Q) Answer with reported viability of CC[C@H](C)[C@@H]1NC(=O)[C@H](CC(C)C)NC(=O)[C@H](Cc2ccccc2)NC(=O)[C@H](Cc2c[nH]c3ccccc23)NC(=O)[C@H](CCSC)NC(=O)[C@H](CCCNC(=N)N)NC(=O)[C@H](CO)NC(=O)[C@H](CCSC)NC(=O)[C@@H](N)CCCCNC(=O)CNC(=O)[C@H](CCCNC(=N)N)NC(=O)[C@H](Cc2c[nH]c3ccccc23)NC(=O)[C@H](Cc2ccccc2)NC(=O)[C@H](CO)NC1=O [compound 24] (HELM PEPTIDE1{K.M.S.R.M.W.F.L.I.S.F.W.R.G}$PEPTIDE1,PEPTIDE1,1:R3-14:R2$$$V2.0; bridges inferred)
A) 96.8
